B1: CPEB3 Ribozyme (parent)
chain: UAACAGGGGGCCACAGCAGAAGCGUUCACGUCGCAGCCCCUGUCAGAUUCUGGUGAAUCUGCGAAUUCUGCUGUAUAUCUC

- Variants of: B1
- PROCEDURE TEXT: self-cleavage, relative activity (ratio to wild type); higher = more cleavage; in vitro, sequencing
Collected self-cleavage values appear next to each entry.

VAR	self-cleavage
C44A A64G	0.49
A13C U78C	1.02
U67A C71U	0.11
C40A U43A	0.45
C40U A45C	0.17
C12A A56U	0.81
G8U U31A	0.18
A15G C34G	0.29
C32A U80A	0.37
G7U U49C	0.11
G8U U74A	0.41
G19U A75U	0.28
G22C C37G	0.09
U78C C79G	1.18
A3G C44A	0.42
G7A A56U	0.52
G9A C34A	0.2
G16A U67A	0.34
U49A U60A	0.21
U41C U69A	0.67
U69C C71G	0.24
U51C G55U	0.73
U67C G73A	0.34
U48C A57C	0.5
G36U U54C	0.26
U25A G30C	0.26
C29A A77U	0.33
U1A A47U	0.78
A56C U80C	0.93
A15G A77C	1.1
A2G A56U	0.31
C23U G46A	0.06
C29A C32A	0.32
U25A C29U	0.22
A3G U67A	0.52
G19U U49A	0.08
